B1: HDV Ribozyme (parent)
chain: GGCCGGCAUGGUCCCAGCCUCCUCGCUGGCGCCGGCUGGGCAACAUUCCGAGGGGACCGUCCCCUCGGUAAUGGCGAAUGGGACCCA

Variants of: B1
ASSAY: self-cleavage, relative activity (ratio to wild type); higher = more cleavage; co-transcriptional
REPORTED_METRIC: self-cleavage

U46A C84G: 0.68
A51G G52A: 1
G10A A56G: 0.695
A43C A77C: 0.0923
G81C A83C: 0.222
C58U A87U: 0.915

*Q* What measured self-cleavage goes with C24G G35A ?
*A* 0.124

*Q* Please do the same for G17U A77U as well.
*A* 0.104

*Q* Please do the same for C24A C62A as well.
*A* 0.946

*Q* Please do the same for G10U G68C as well.
*A* 0.564

*Q* Please do the same for C19A U46G as well.
*A* 0.0386

*Q* Please do the same for C4G U46G as well.
*A* 0

*Q* Please do the same for U37A A71U as well.
*A* 0.394

*Q* Please do the same for A16U C24G as well.
*A* 0.237

*Q* Please do the same for C48U C63U as well.
*A* 0.969

*Q* Please do the same for G25C G38U as well.
*A* 0.0791

*Q* Please do the same for C19A U27C as well.
*A* 0.0536

*Q* Please do the same for U46A C66U as well.
*A* 0.743

*Q* Please do the same for G31A U72A as well.
*A* 0.0292

*Q* Please do the same for G39A C44A as well.
*A* 0.0405

*Q* Please do the same for C14G U60A as well.
*A* 0.831

*Q* Please do the same for C44U C75U as well.
*A* 0.157

*Q* Please do the same for G31A G68U as well.
*A* 0.463

*Q* Please do the same for A42U G76U as well.
*A* 0.745

*Q* Please do the same for C15A C19U as well.
*A* 0.089
